Test: NCI Yeast Anticancer Drug Screen. Data for the rad50 strain (AID 155);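 note: 0% = growth of vehicle-only cultures of the same strain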
Details: S. cerevisiae rad50 strain growth inhibition; at 50.0 µM (retest, dose inferred, filed as 5.0)
About 79,000 compounds went through this panel and 15% of them were active in at least one assay; those are over-represented in the sample as a whole. Active and inactive are the calls of the source. Cut-off read from the data, not from the text of the source: active = growth inhibition above about 70%; inactive = the rest.
Classes to choose from: active, inactive

1) CCOC(=O)c1c[nH]c2cc(C(F)(F)F)ccc2c1=O    active

For the next question, use this compound.
QUERY: I would be grateful if you could indicate the recorded call for Cc1cc2c(C(C)C)c(O)c(O)c(C=Nc3ccccc3S)c2c(O)c1-c1c(C)cc2c(C(C)C)c(O)c(O)c(C=Nc3ccccc3S)c2c1O .
RESULT: inactive

====

Assay: NCI Yeast Anticancer Drug Screen. Data for the cln2 rad14 strain (AID 165);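 note: 0% = growth equal to vehicle treated cultures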
Conditions: S. cerevisiae cln2 rad14 strain, at 50.0 µM, active compounds read high
This is part of a sample that, as a whole, favours compounds with a hit. Of some 79,000 tested, about 15% had one in any assay.
Decide by growth inhibition: equal to or exceeding 50% means 1, less means -1.

Look over these answered cases.
1) O=C(NNc1ccnc2cc(Cl)ccc12)/C(=C/c1ccc2c(c1)OCO2)NC(=O)c1ccccc1    1
2) Cc1noc(-c2ccc([N+](=O)[O-])o2)n1    1
3) Cc1nc2c(ccc3[nH]c4ccccc4c32)s1    1

QUERY: Check the entry CC(C)c1ccc(C=Nc2ccc(SSc3ccc(N=Cc4ccc(C(C)C)cc4)cc3)cc2)cc1 : does growth inhibition equal or exceed 50%?
RESULT: -1

QUERY: Then what about the molecule CCCCCCN(CCCCCC)C(=O)C1=C(C)NC(C)=C(C(=O)N(CCCCCC)CCCCCC)C1 ?
RESULT: -1

QUERY: Try the molecule Oc1ccc(/C=N/NC(=S)NN2CCOCC2)nc1
RESULT: 1

QUERY: Another: CC[N](CC)[Ge]([CH2]C)[CH2]C.C[CH2][Ge]([CH2]C)[CH2]C
RESULT: 1

QUERY: // next record CCCCN(C(=O)CCl)c1ccccc1
RESULT: -1

QUERY: How about this molecule: C/C(N=NC(=S)N1CCCCCC1)=C1\C=CC=CN1O
RESULT: -1

QUERY: Next up: c1ccc2c(c1)CC1=C(O2)c2ccccc2OC1
RESULT: -1

QUERY: Also O=C(N/C=C/C=C/Sc1ccccc1)OCc1ccccc1 , if possible.
RESULT: -1

====

Assay: NCI Yeast Anticancer Drug Screen. Data for the mec2-1 strain (AID 157)
Settings: S. cerevisiae mec2-1 strain, at 50.0 µM (retest, dose inferred, filed as 5.0)
About 79,000 compounds went through this panel and 15% of them were active in at least one assay; those are over-represented in the sample as a whole. Active and inactive are the calls of the source. No stated cut-off is given here; in the data, active means growth inhibition above about 70%; inactive means the rest.
Would you mind answering with one of these outcomes? active, inactive

For orientation, consider the following solved cases.
1. O=c1c(Cl)c(Cl)cnn1CCCl    inactive
2. Nc1nc(N)c2nc3c4ccccc4c4ccccc4c3nc2n1    inactive
3. Cc1nc2c(Br)cc(Br)cc2c(=O)n1-c1ccccc1NC1OC(CO)C(O)C(O)C1O (stereo unspecified)    inactive

QUERY: For CCSSc1ccccc1C(=O)NC(CC)CO (stereo unspecified) , what call appears in the results of this test?
RESULT: inactive

QUERY: And for CCCCCCCCCCS(=O)CC(CO)NC(=O)/C=C/c1c(C)[nH]c(=O)[nH]c1=O (stereo unspecified) ?
RESULT: active

QUERY: Next up: Cc1ccc2c(c1)C1(C)OC(C=CC1=O)O2 (stereo unspecified)
RESULT: active

====

Test: NCI Yeast Anticancer Drug Screen. Data for the mec2-1 strain (AID 157)
Conditions: S. cerevisiae mec2-1 strain, at 50.0 µM (retest, dose inferred, filed as 5.0), active compounds read high
About 79,000 compounds went through this panel and 15% of them were active in at least one assay; those are over-represented in the sample as a whole.
growth inhibition vs 60%: at or above is t, below is f.

Worked examples, 2 compounds total:
1) Nc1nnc(/C=C/c2ccccc2)o1    f
2) O=S(=O)(c1ccc(F)cc1)c1ccc(F)cc1    f

QUERY: I'd appreciate it if you could say whether CCCCCCC(CCCCCCCCCCC(=O)OCC(CC)CC)OC(=O)CC (configuration not stated) has growth inhibition at least equal to 60%.
RESULT: f

QUERY: One more compound: CC(C)OP(=O)(OC(C)C)C(=Nc1ccccc1)NNc1ccc([N+](=O)[O-])cc1
RESULT: f

QUERY: Next: C=C(C)C(=O)Oc1ccc(N=Nc2ccccc2)ccc1=O
RESULT: t

QUERY: Again, but for O=C(NC(C(=O)O)c1ccccc1)OCc1ccccc1 (configuration not stated)
RESULT: f

QUERY: Same again, this time with Clc1ccc2c(c1)[nH]c1c2nc2ccccn21
RESULT: t

QUERY: Request: N=C1N(c2ccccc2)C(=S)C(=Nc2ccccc2)N1c1ccccc1
RESULT: t

====

Assay: NCI Yeast Anticancer Drug Screen. Data for the rad50 strain (AID 155);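 note: 0% = growth of vehicle-only cultures of the same strain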
Settings: S. cerevisiae rad50 strain growth inhibition; at 5.0 µM (retest, dose inferred, filed as 0.5)
This is part of a sample that, as a whole, favours compounds with a hit. Of some 79,000 tested, about 15% had one in any assay. Calls of active or inactive are those of the source. Cut-off read from the data, not from the text of the source: active = growth inhibition above about 70%; inactive = the rest.
Your answer must be one of the following: 1 for active, 0 for inactive

Check out these entries, answers already filled in.
1. CCOC(=O)C1=C(C(=O)c2ccc(OC)cc2)C(c2c(Cl)cccc2Cl)C(C(=O)c2ccc(OC)cc2)=C(C(=O)OCC)N1    0
2. COc1cccc2c1C(=O)c1c(O)c3c(c(O)c1C2=O)CC(O)(C(C)=O)CC3OC1CC(N)C(O)C(C)O1 (centres undefined)    0
3. CCCCCCCCCCCCN    1

QUERY: // return assay outcome for O=[N+]([O-])c1cc2c(cc1S(=O)(=O)O)C1C(C3C2C2(Cl)C(Cl)=C(Cl)C3(Cl)C2(Cl)Cl)C2(Cl)C(Cl)=C(Cl)C1(Cl)C2(Cl)Cl (centres undefined)
RESULT: 0

====

Experiment: NCI Yeast Anticancer Drug Screen. Data for the cln2 rad14 strain (AID 165);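 note: 0% = growth equal to vehicle treated cultures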
Details: S. cerevisiae cln2 rad14 strain, at 50.0 µM, active compounds read high
The panel holds about 79,000 compounds, 15% with a hit somewhere; the sample as a whole holds those more often.
test.readout: growth inhibition (%)
One number for each entry, in %.

Sample records with growth inhibition:
1) COc1ccc(N/N=C(\CCN(C)C)c2ccccc2)cc1    57.9
2) CC(=O)OC1OC(=O)C(C)(C(C)=O)C1C (configuration not stated)    83.2

Respectfully, I request growth inhibition for each entry included below.
1. C=C1CC2(CC(c3ccccc3OC)OC(c3ccccc3OC)C2)OC1=O (configuration not stated)
2. Cc1ccnc2c1c(=O)c1ccccc1n2C
3. CC(=O)OC(c1ccccc1)c1ccc(Cl)cc1 (configuration not stated)
4. O=S(c1cc(Cl)cc(Cl)c1O)c1cc(Cl)cc(Cl)c1O

RESULT:
1: 71.8; 2: 46.2; 3: -1.9; 4: 99.5

====

Experiment: NCI Yeast Anticancer Drug Screen. Data for the sgs1 mgt1 strain (AID 161);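 note: 0% = growth of cultures given vehicle only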
Conditions: S. cerevisiae sgs1 mgt1 strain, at 50.0 µM
The panel holds about 79,000 compounds, 15% with a hit somewhere; the sample as a whole holds those more often. Active and inactive are the calls of the source. No stated cut-off is given here; in the data, active means growth inhibition above about 70%; inactive means the rest.
Return exactly one item of T = active, F = inactive

1. CCOc1ccc(N/N=C(\CCC(=O)O)C(=O)O)cc1    F
2. Clc1nc2nc(Cl)c(Cl)n2nc1Cl    T
3. COC(=O)c1ccc(O)c(OC)c1    F
4. CC(C)c1ccc(C=Nc2ccc(SSc3ccc(N=Cc4ccc(C(C)C)cc4)cc3)cc2)cc1    F
5. c1ccc(-c2cnc(-c3ccc(-c4ncc(-c5ccccc5)o4)cc3)o2)cc1    F
6. COc1ccc2cc(C(C)=O)c3ccccc3c2c1    T
7. Cc1c(OCc2cccc3ccccc23)ccc2c(=O)cc(SCCN3CCOCC3)oc12    T
8. CCc1[nH]c(=O)nc(N)c1-c1ccc(N2CCCCC2)c([N+](=O)[O-])c1    T

QUERY: What classification did CC[C@](O)(CC(=O)O[C@H]1C(=O)O[C@@H]2C[C@H]3C(C)=CC(=O)[C@@H](O)[C@]3(C)[C@H]3[C@@]4(O)OC[C@]32[C@@H]1[C@@H](C)[C@H]4O)C(C)C end up with in this test?
RESULT: T

QUERY: Query O=C1OC(c2ccc(O)cc2)(c2ccc(O)cc2)c2cccc3cccc1c23 next
RESULT: T

QUERY: Another compound to look at: Cc1ccc(S(=O)(=O)N/N=C2/C(=O)c3cccc4cccc2c34)cc1
RESULT: F

====

Assay: NCI Yeast Anticancer Drug Screen. Data for the rad50 strain (AID 155);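 note: 0% = growth of vehicle-only cultures of the same strain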
Conditions: S. cerevisiae rad50 strain growth inhibition; at 5.0 µM (retest, dose inferred, filed as 0.5); active compounds read high
The panel holds about 79,000 compounds, 15% with a hit somewhere; the sample as a whole holds those more often.
test.readout: growth inhibition (%)
Numbers only, in %.

Below are worked cases with known answers.
1. O=C1c2ccccc2C(=O)c2c(O)c(O)cc(O)c21    97
2. CCOP(=O)(OCC)C(C)(CC)NC(=O)C(C(F)(F)F)C(F)(F)F (stereo unspecified)    21
3. CCOC(=O)c1c(CN2CCNCC2)nc2ccc(Cl)cc2c1-c1ccccc1    30
4. C1=C(CN2CCCCC2)COc2ccccc21    9
5. COC(=O)C1c2cc3c(cc2C(OC2OC(C)C(OC)C(C)(OC)C2OC)CC1(C)O)C(=O)c1c(O)cc2c(c1C3=O)OC1OC2(C)C(O)C([N+](C)(C)[O-])C1O (stereo unspecified)    7

Okay, now this compound:
QUERY: Form field: reported growth inhibition of CCCN(CCC)C(=S)N/N=C/c1ccccn1
RESULT: 99
